- Test system: MEF A1-2A-BIM cells, caspase 3/7 luminescence, 3 h
- protocolDetails: inducers of caspase signal in A1-dependent MEFs – cell-based, luminescence, retest, A1 inhibitor project, dose response (AID 2765)
Calls of active or inactive are those of the source.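 The calls were made as follows: active = half-maximal concentration for the rise in caspase light signal at or below ten times the top tested dose; inconclusive = flat fit between 30% and 70% activity, or unreliable curve fit; inactive = the rest.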
Labels: active, inactive

compound	classLabel
COc1cc(S(=O)(=O)Nc2ccncc2)ccc1F	inactive
O=C(CS(=O)c1ccc(C(F)(F)F)cc1[N+](=O)[O-])Oc1ccccc1 (stereo not given)	inactive
Cc1cc(NC(=O)c2ccc3c(c2)C(=O)N(Cc2ccccc2)C3=O)no1	inactive
CC(C)(C)C(=O)CNS(=O)(=O)c1ccc(S(=O)(=O)NC2CC2)cc1	inactive
COC(=O)CSc1nc(N)c2c3c(sc2n1)C(c1ccccc1)SC(c1ccccc1)C3 (stereo not given)	inactive
CCOc1ccc(NC(=S)NC(=O)/C=C/c2ccc(C)cc2)c([N+](=O)[O-])c1	active
O=C(Oc1cccc(/C=N/Nc2nc(Nc3ccccc3)nc(N3CCOCC3)n2)c1)c1ccco1	inactive
Cc1[nH]nc2nc(SCC(=O)NCCC3=CCCCC3)n(-c3ccc(Br)cc3)c(=N)c12	active
O=C1N(S(=O)(=O)c2ccccc2F)C(=O)C2(CCCC2)N1S(=O)(=O)c1ccccc1F	inactive
COc1cc(/C=C/[N+](=O)[O-])ccc1OC(=O)c1cccnc1	active
O=C(COC(=O)/C=C/c1cccc(Cl)c1Cl)Nc1ccc2[nH]c(=O)[nH]c2c1	inactive
Cc1cccc(/C=C/C(=O)c2ccc([N+](=O)[O-])o2)c1	inactive
CCOc1ccccc1NC(=O)CN1C(=O)CSC(C)C1=O (stereo not given)	inactive
Cc1cccc(NC(=O)CCC(=O)N/N=C/c2ccco2)c1C	inactive
CCCNC(=O)C(Cc1ccccc1)NC(=O)Cc1ccccc1 (stereo not given)	inactive
COc1ccc(NC(=O)c2ccco2)c(NC(=O)c2ccc([N+](=O)[O-])cc2)c1	inactive
COc1ccc(NC(=O)/C(Cl)=C(/Cl)S(=O)Cc2ccc(C)cc2)cn1 (stereo not given)	inactive
Cc1ccc(C)c(N(C)C(=O)c2ccc3c(=O)n4c(nc3c2)CCCCC4)c1	inactive
CCCCNC(=O)c1ccc(Cn2c(=S)[nH]c3c([nH]c4ccc(OC)cc43)c2=O)cc1	active
Cc1cc(Oc2ccc(=O)[nH]n2)nc(Cl)n1	inactive
CCOC(=O)Cc1csc(/N=C/c2c(O)n(-c3ccc(C)c(C)c3)c(=O)c3ccccc23)n1	active
CC(=O)c1ccc(S(=O)(=O)N2CCCCC2C(=O)O)cc1 (stereo not given)	inactive
C=C1/C=C(\C)[C@](C)(O)C[C@H](O)CC(=O)[C@H](O)[C@@H](O)[C@H](C)C[C@H](C)OC(=O)/C(C)=C/CC/C=C/[C@@H]2O[C@H]2C[C@H](C)C1	inactive
CSC[C@@H]1NC(=S)N(c2ccc(C)cc2)C1=O	inactive
Cc1c(C(=O)c2ccccc2C(=O)O)sc2ccccc12	inactive
CN1CCN(CCCNC(=O)c2ccc3c(Cl)c4c(nc3c2)CCCC4)CC1	inactive
Cc1cc(N2C(=O)C=CC2=O)c([N+](=O)[O-])cc1C	inactive
Cc1cc(-c2onc(C)c2C(=O)Nc2ccc(C(F)(F)F)cc2)no1	inactive
COc1ccc(S(=O)(=O)N(C)C[C@H]2Oc3ccc(NC(=O)Nc4c(C)noc4C)cc3C(=O)N([C@H](C)CO)C[C@@H]2C)cc1	inactive
O=C(NC1CCCC1)c1cccc2c1C(=O)c1ccc(/C=C/c3ccccc3)cc1S2(=O)=O	active
COc1cc(-c2nnc(NC(=O)CCS(=O)(=O)c3ccc(F)cc3)o2)cc(OC)c1OC	inactive
Cc1ccc(Sc2ncccc2C(=O)NCc2cc([N+](=O)[O-])ccc2O)cc1C	inactive
CCOC(=O)c1c(C)nc2sc(C(=O)Nc3ccc(C(C)=O)cc3)c(N)c2c1-c1ccc(OC)cc1	inactive
COc1ccc(C(=O)NCc2cccnc2)cc1Br	inactive
C[C@H](CO)N1C[C@H](C)[C@H](CN(C)Cc2ccc(-c3ccccc3)cc2)Oc2ccc(NS(=O)(=O)c3ccccc3)cc2CC1=O	inactive
Oc1ccc(C[C@H]2CNCCN2CCCCC2CCCCC2)cc1	inactive
COc1ccccc1CC(=O)N1CCOCC1	inactive
CC(NC(=O)c1cccc(OC2CCN(C3CCN(C)CC3)CC2)c1)c1ccccc1 (stereo not given)	inactive
CCOc1ccc(-c2ccc(NS(=O)(=O)c3ccc([N+](=O)[O-])cc3)cc2)nn1	inactive
Cc1onc(-c2c(Cl)cccc2Cl)c1C(=O)N=S(C)(=O)c1ccccc1 (stereo not given)	inactive

# credit: PubChem BioAssay AID2765
